- assay_target: human GLP-1 receptor (GLP1R) (human, UniProt P43220)
- method: cell-based or functional assay
*1 amine or outer side, *2 acyl side, *3 side chain or, on linkers, in order; H or OH if unused. Bridges are numbered along the chain shown (N, C = ends). Where no end group is shown, it is not given here. [ ]: non-standard residue; d: D form. γGlu = O=C(O)[C@H](CCC(=O)[*:2])N[*:1]; Met(O2) = CS(=O)(=O)CC[C@H](N)C(=O)O; Nle = CCCC[C@H](N)C(=O)O; Aib = CC(C)(N)C(=O)O
measured_property: GLP1R EC50 human (nM), cAMP activity assay
The answer is to be given in nM; state only the numeric part.

binder | observed
H[dS]QGTFTSDKSKYLDARAAKDFVEWLLDT-NH2 (lactam 20-24; not fully specified (residue 10); printed as HsQGTFTSDK(γEγEC16)SKYLDARAAK*DFVE*WLLDT-NH2) [TP707] | 0.17
H[Aib]QGTFTSDKSKYLD[Aib]RAAKDFVEWL[Met(O2)]DTK(γGlu)-NH2 (lactam 20-24; not fully specified (residue 10); printed as HUQGTFTSDK(γEγEC16)SKYLDURAAK*DFVE*WL2DTKγE-NH2) [TP846] | 0.147
H[Aib]QGTFTSDKSKYLD[Aib]KAAQEFVQWL[Nle]DT-NH2 (lactam 17-21; not fully specified (residue 10); printed as HUQGTFTSDK(γEγEC16)SKYLDUK*AAQE*FVQWL-Nle-DT-NH2) [TP840] | 0.17

Task: So what does the record say about GLP1R EC50 human (nM), cAMP activity assay for H[dS]QGTFTSDKSKYLDERAAKDFVEWLLDT-NH2 (lactam 20-24; not fully specified (residue 10); printed as HsQGTFTSDK(γEγEC16)SKYLDERAAK*DFVE*WLLDT-NH2) [TP485] ?
Result: 0.14
